experiment: recombinant barcode read abundance after kanamycin selection (control-corrected) (log10(CPM+1)); higher = more efficient recombination; sequences stand for … in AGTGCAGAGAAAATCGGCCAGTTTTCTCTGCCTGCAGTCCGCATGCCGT…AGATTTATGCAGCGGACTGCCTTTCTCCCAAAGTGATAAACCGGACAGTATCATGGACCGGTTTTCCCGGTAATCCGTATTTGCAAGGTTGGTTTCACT; site = the 11-nt target
// bucketize recombinant barcode read abundance (log10): one = under 0.07, two = from 0.07 up to 0.3, three = 0.3 and over

Ask: Exam item: assign AGCCTTACTTGGGTTCTAACCTGTTGCCT (site ACCCTTACTAG) to the correct category.
Reply: two

Ask: Lab log: CCAGCTGCTTGGGTTCTAACCTGTTGCCT (site CCAGCTGCTAG) — assign recombinant barcode read abundance (log10) category
Reply: three

Ask: Please report the category associated with ACCAGTCCTTGGGTTCTAACCTGTTGCTG (site ACCAGTCCTTA) , nothing else.
Reply: two

Ask: Just checking, what class would you give CGCGCAACTTGGGTTCTAACCTGTTGCCT (site CGCGCAACTAG) here?
Reply: one

Ask: Category of GTCCGTCCTTGGGTTCTAACCTGTTGCGT (site GTCCGTCCTAT) :
Reply: three

Ask: Form: Item = ATGATTGCTTGGGTTCTAACCTGTTGCCT (site ATGAATGCTAG) ; Class = ?
Reply: two

Ask: Lab note: sort CGTAGAGCTTGGGTTCTAACCTGTTGCCT (site AGTAGAACTAG) into the matching recombinant barcode read abundance (log10) band.
Reply: one

Ask: Could you place TCTAGATCTTGGGTTCTAACCTGTTGCCT (site TCTAGATCTAG) in its proper category? Many thanks.
Reply: one

Ask: Bin this entry: GGTCCAACTTGGGTTCTAACCTGTTGCCT (site GGTCTAACTAG)
Reply: two

Ask: # classify by recombinant barcode read abundance (log10) band: TATTCTCCTTGGGTTCTAACCTGTTGCCT (site TATTCTCCTAG)
Reply: one

Ask: Kindly identify the class of CTAGCGACTTGGGTTCTAACCTGTTGCCG (site CTAGCGACTCG) .
Reply: three

Ask: Determine which band this sequence sits in: ATTTCCACTTGGGTTCTAACCTGTTGCCT (site ATTTCCACTAG)
Reply: three

Ask: For this sequence, which bin applies? CAAGTGGCTTGGGTTCTAACCTGTTGCCT (site CAAGTGGCTAG)
Reply: three

Ask: Which of the defined bands does the recorded recombinant barcode read abundance (log10) of TGCACTCCTTGGGTTCTAACCTGTTGCCT (site TGCACTCCTAG) sit within?
Reply: one

Ask: Exercise: read the entry GCCTCGCCTTGGGTTCTAACCTGTTGCAG (site GCCCCGCCTCT) and state which class it falls under.
Reply: two

Ask: Please let me know in which category the item TACAGTTCTTGGGTTCTAACCTGTTGCTT (site TACCATTCTAA) belongs.
Reply: two

Ask: Band for the recorded recombinant barcode read abundance (log10) of CGGCGTGCTTGGGTTCTAACCTGTTGCCT (site CCGCGTGCTAG) ?
Reply: three

Ask: Band for AATGCTTCTTGGGTTCTAACCTGTTGCCT (site AATGCTTCTAG) ?
Reply: three

Ask: Consider GGTAGGCCTTGGGTTCTAACCTGTTGCTT (site GGTAGATCTAA) . To which recombinant barcode read abundance (log10) class does it belong?
Reply: two

Ask: Determine which band this sequence sits in: TCTCAGCCTTGGGTTCTAACCTGTTGCCT (site TCTCAGCCTAG)
Reply: three

Ask: Into which bin does this sequence go? TTAAAACCTTGGGTTCTAACCTGTTGCCT (site GTAAAACCTAG)
Reply: one

Ask: Form field 'band' for TAGAATACTTGGGTTCTAACCTGTTGCGG (site TATAATACTCC)
Reply: one

Ask: Consider AATAGCTCTTGGGTTCTAACCTGTTGCCT (site AATAGCTCTAG) . To which recombinant barcode read abundance (log10) class does it belong?
Reply: three

Ask: For this sequence, which bin applies? ATATTGTCTTGGGTTCTAACCTGTTGCCA (site ATATTGCCTAG)
Reply: one

Ask: Class label required: ACGCGTCCTTGGGTTCTAACCTGTTGCCG (site ACGCGTCCTCG)
Reply: two

Ask: Pick a category. Item: CACGATGCTTGGGTTCTAACCTGTTGCCT (site CAGGATGCTAG)
Reply: two

Ask: GET /class?item= AGGATAGCTTGGGTTCTAACCTGTTGCGG (site AGGATAGCTCC)
Reply: three

Ask: Note: place this sequence into its band. Item: GTAAGCACTTGGGTTCTAACCTGTTGCTT (site GTAAGGACTAA)
Reply: one

Ask: // bin(item) where item = GTATGTGCTTGGGTTCTAACCTGTTGCGG (site GTATGTGCTCC)
Reply: three

Ask: Each sequence maps to one class by recombinant barcode read abundance (log10). Which class for CGGGACACTTGGGTTCTAACCTGTTGCGG (site CGGCACACTCC) ?
Reply: two

###

assay: recombinant UMI read abundance after kanamycin selection (control-corrected) (log10(CPM+1)); higher = more efficient recombination; extreme values may be limits of the assay; sequences stand for … in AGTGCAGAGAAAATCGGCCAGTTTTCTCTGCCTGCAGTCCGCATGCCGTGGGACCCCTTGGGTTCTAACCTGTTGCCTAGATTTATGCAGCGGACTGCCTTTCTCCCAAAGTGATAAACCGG…AGGTTGGTTTCACT; site = the 11-nt donor
I'd be grateful if you could share measured recombinant UMI read abundance (log10) for these entries.
// response body must contain only the number

Reported recombinant UMI read abundance (log10) ( AGAAAGGCATGGACCGGTTTTCCCGGTAATCCGTATTTGCG (site AGAAAGGCTAG) ) = 1.07

The sequence listed as GTTGTTCCATGGACCGGTTTTCCCGGTAATCCGTATTTGGA (site GTTGTTCCTGC) shows recombinant UMI read abundance (log10) equal to 0

Record GGATTGGCATGGACCGGTTTTCCCGGTAATCCGTATTTGGT (site GGAATGGCTAC) , field recombinant UMI read abundance (log10): 0.341

Form: sequence = CCGTTTACATGGACCGGTTTTCCCGGTAATCCGTATTTGAT (site CCGTTTACTAT) ; recombinant UMI read abundance (log10) = 0

# recombinant UMI read abundance (log10) (sequence: GACGCAACATGGACCGGTTTTCCCGGTAATCCGTATTTGTA (site GACGCAACTTA) ) is 1.34

Looking up ATACCCACATGGACCGGTTTTCCCGGTAATCCGTATTTGAC (site ATACCCACTGT) , I see its recombinant UMI read abundance (log10) listed as 2.65

Input CACTCCCCATGGACCGGTTTTCCCGGTAATCCGTATTTGCC (site CACTCCCCTGG) . Output recombinant UMI read abundance (log10): 1.23

Field recombinant UMI read abundance (log10) (entry TGGTGCACATGGACCGGTTTTCCCGGTAATCCGTATTTGCC (site TGGTGCACTGG) ) reads 1.75

The reported value for TGAGCTGCATGGACCGGTTTTCCCGGTAATCCGTATTTGTG (site TAAGCTGCTCA) in terms of recombinant UMI read abundance (log10) is 0.038

Just so you know, measured recombinant UMI read abundance (log10) for CACTTGGCATGGACCGGTTTTCCCGGTAATCCGTATTTGCA (site CACTTGGCTTG) came out at 0.498

###

test: recombinant barcode read abundance after kanamycin selection (control-corrected) (log10(CPM+1)); higher = more efficient recombination; sequences stand for … in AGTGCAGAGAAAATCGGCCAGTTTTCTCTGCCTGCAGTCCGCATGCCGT…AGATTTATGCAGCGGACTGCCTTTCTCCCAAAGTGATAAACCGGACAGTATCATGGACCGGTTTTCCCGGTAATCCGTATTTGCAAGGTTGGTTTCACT; site = the 11-nt target
Tag: 1 if measured recombinant barcode read abundance (log10) is not below 0.3, -1 if it is.

Ask: Identify whether the reported recombinant barcode read abundance (log10) of the following sequence is 0.3 or greater: TATATAACTTGGGTTCTAACCTGTTGCCT (site TATATAACTAG)
Reply: -1

Ask: Does the reported recombinant barcode read abundance (log10) for GCATACACTTGGGTTCTAACCTGTTGCCA (site GCATACACTTG) fall at or above the 0.3 mark?
Reply: 1

Ask: Exam item: decide whether the reported recombinant barcode read abundance (log10) for GGCCGGCCTTGGGTTCTAACCTGTTGCCT (site GGCCGGACTAG) is at least 0.3.
Reply: -1

Ask: Please tell me: is the sequence GGATGTCCTTGGGTTCTAACCTGTTGCGT (site CTATGTCCTAC) at or over 0.3 in terms of recombinant barcode read abundance (log10)?
Reply: -1

Ask: Could you verify whether the entry CGGTACACTTGGGTTCTAACCTGTTGCGG (site CGGCACACTCC) shows recombinant barcode read abundance (log10) of no less than 0.3?
Reply: 1

Ask: I'd appreciate it if you could say whether CCGGCCACTTGGGTTCTAACCTGTTGCCT (site CAGGCCACTAG) has recombinant barcode read abundance (log10) at least equal to 0.3.
Reply: 1

Ask: Confirm if recombinant barcode read abundance (log10) reported for the sequence TTGAGGCCTTGGGTTCTAACCTGTTGCGG (site TCGAGTCCTCC) is 0.3 or above.
Reply: -1

Ask: Check if recombinant barcode read abundance (log10) >= 0.3 (inclusive). Item: ATGATTGCTTGGGTTCTAACCTGTTGCCT (site ATGATTGCTAG)
Reply: 1

Ask: Confirm if recombinant barcode read abundance (log10) reported for the sequence TTCAATTCTTGGGTTCTAACCTGTTGCTT (site TTCAATTCTAA) is 0.3 or above.
Reply: -1

Ask: Hello, I need to know if TACAAGTCTTGGGTTCTAACCTGTTGCGG (site TACAAGTCTCC) has measured recombinant barcode read abundance (log10) not below 0.3. Thanks!
Reply: 1

Ask: Is it the case that TTGGAAGCTTGGGTTCTAACCTGTTGCCT (site TTGGCAGCTAG) has recombinant barcode read abundance (log10) reaching or exceeding 0.3?
Reply: -1

Ask: Can GACTGAGCTTGGGTTCTAACCTGTTGCGG (site GACTGAGCTCC) be said to have recombinant barcode read abundance (log10) at or above 0.3?
Reply: 1

Ask: Check the entry GCTCAGGCTTGGGTTCTAACCTGTTGCCT (site GCTCAGACTAG) : does recombinant barcode read abundance (log10) equal or exceed 0.3?
Reply: -1
